List of IC50 values.
# studyTarget: Steroid hormone receptor ERR1 (Homo sapiens, UniProt P11474)
# Sequence (P11474 whole entry): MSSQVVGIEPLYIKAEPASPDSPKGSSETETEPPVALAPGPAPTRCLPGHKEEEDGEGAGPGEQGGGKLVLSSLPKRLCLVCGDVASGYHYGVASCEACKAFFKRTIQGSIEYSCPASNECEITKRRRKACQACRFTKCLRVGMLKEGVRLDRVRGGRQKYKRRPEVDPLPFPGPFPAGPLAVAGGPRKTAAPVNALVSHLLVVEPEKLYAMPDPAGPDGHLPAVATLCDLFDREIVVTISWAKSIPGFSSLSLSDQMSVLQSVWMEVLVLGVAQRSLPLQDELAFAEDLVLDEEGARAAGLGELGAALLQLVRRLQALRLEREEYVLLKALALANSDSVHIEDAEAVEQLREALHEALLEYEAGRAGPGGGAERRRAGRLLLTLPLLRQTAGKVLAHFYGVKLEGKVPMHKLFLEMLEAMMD
Express your answer in nM, writing the number without its unit.

1. COc1cc(/C=C(\C#N)C(=O)NCCCCC(=O)N[C@H](C(=O)N2C[C@@H](O)C[C@H]2C(=O)NCc2ccc(-c3scnc3C)cc2)C(C)(C)C)ccc1OCc1ccc(C(F)(F)F)cc1C(F)(F)F
5.33
2. COc1cc(/C=C(\C#N)C(=O)NCCCCCCC(=O)N[C@H](C(=O)N2C[C@H](O)C[C@H]2C(=O)NCc2ccc(-c3scnc3C)cc2)C(C)(C)C)ccc1OCc1ccc(C(F)(F)F)cc1C(F)(F)F
12.3
3. COc1cc(/C=C(\C#N)C(=O)NCCCCCC(=O)N[C@H](C(=O)N2C[C@H](O)C[C@H]2C(=O)NCc2ccc(-c3scnc3C)cc2)C(C)(C)C)ccc1OCc1ccc(C(F)(F)F)cc1C(F)(F)F
5.67
4. COc1cc(/C=C(\C#N)C(=O)O)ccc1OCc1ccc(C(F)(F)F)cc1C(F)(F)F
5.67

Sure, the documented IC50 for "COc1cc(/C=C(\C#N)C(=O)NCCOCCC(=O)O)ccc1OCc1ccc(C(F)(F)F)cc1C(F)(F)F" is 4.67

The reported value for "COc1cc(/C=C(\C#N)C(N)=O)ccc1OCc1ccc(C(F)(F)F)cc1C(F)(F)F" in terms of IC50 is 4.33

Field IC50 (entry "COc1cc(/C=C(\C#N)C(=O)NCCOCCOCCOCCC(=O)N[C@H](C(=O)N2C[C@H](O)C[C@H]2C(=O)NCc2ccc(-c3scnc3C)cc2)C(C)(C)C)ccc1OCc1ccc(C(F)(F)F)cc1C(F)(F)F" ) reads 7

// IC50 value for "COc1cc(/C=C(\C#N)C(=O)NCCC(=O)N[C@H](C(=O)N2C[C@H](O)C[C@H]2C(=O)NCc2ccc(-c3scnc3C)cc2)C(C)(C)C)ccc1OCc1ccc(C(F)(F)F)cc1C(F)(F)F" : 7.33

Briefly, IC50 measured for "COCCNC(=O)/C(C#N)=C/c1ccc(OCc2ccc(C(F)(F)F)cc2C(F)(F)F)c(OC)c1" : 4.33
